Target: RORγt (Homo sapiens)
Sequence (P51449 1-497 isoform P51449-2, species assumed): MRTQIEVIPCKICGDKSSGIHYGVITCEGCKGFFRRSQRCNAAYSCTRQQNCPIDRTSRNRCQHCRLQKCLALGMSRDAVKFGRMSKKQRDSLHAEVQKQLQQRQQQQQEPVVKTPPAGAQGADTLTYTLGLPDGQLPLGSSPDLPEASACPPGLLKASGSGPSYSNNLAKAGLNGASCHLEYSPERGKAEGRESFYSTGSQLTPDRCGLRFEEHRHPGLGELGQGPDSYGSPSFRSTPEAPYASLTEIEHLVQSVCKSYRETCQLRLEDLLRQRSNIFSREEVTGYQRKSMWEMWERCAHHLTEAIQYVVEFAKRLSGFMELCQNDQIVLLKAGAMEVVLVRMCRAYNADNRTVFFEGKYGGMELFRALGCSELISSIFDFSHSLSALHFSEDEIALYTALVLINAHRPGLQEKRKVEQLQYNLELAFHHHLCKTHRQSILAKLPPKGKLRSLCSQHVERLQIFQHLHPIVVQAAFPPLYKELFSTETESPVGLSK
Assay: Cofactor recruitment test (Alpha Screen, biotinylated SRC-1 peptide)
Format: biochemical
Conditions: test compound 1 μM, RORγt and biotinylated SRC-1 peptide, read-out: signal value inhibitory rate
inhibition at 1 µM values by entry
valueType: inhibition at 1 µM (%)

[[record]]
smilesrepresentation = "COc1ccc(-c2c(-c3nc(CC(=O)NCC4CCOCC4)cs3)cnn2C(C)(C)C)cc1F"
valuetype = "inhibition at 1 µM"
uom = "%"
valueobserved = 95.4

[[record]]
smilesrepresentation = "CC(C)(C)n1ncc(-c2nc(CC(=O)NCC3CCOCC3)cs2)c1-c1ccc(F)cc1"
valuetype = "inhibition at 1 µM"
uom = "%"
valueobserved = 109

[[record]]
smilesrepresentation = "CC(C)(C)n1ncc(-c2nc(CC(=O)NCC3CCOCC3)cs2)c1-c1ccc(Cl)cc1"
valuetype = "inhibition at 1 µM"
uom = "%"
valueobserved = 101

[[record]]
smilesrepresentation = "O=C(Cc1csc(-c2cnn(C3CCCCC3)c2-c2ccc(F)cc2)n1)NCC1CCOCC1"
valuetype = "inhibition at 1 µM"
uom = "%"
valueobserved = 78.6

[[record]]
smilesrepresentation = "CC(C)(C)n1ncc(-c2nc(CC(=O)NCc3ccc(-n4ccnc4)cc3)cs2)c1-c1ccc(F)cc1"
valuetype = "inhibition at 1 µM"
uom = "%"
valueobserved = 100

[[record]]
smilesrepresentation = "CC(C)(C)n1ncc(-c2nc(CC(=O)NCc3cccnc3)cs2)c1-c1ccc(F)cc1"
valuetype = "inhibition at 1 µM"
uom = "%"
valueobserved = 99.8

[[record]]
smilesrepresentation = "CC(C)(C)n1ncc(-c2nc(CC(=O)NCC3CCOCC3)cs2)c1-c1cc2ccccc2s1"
valuetype = "inhibition at 1 µM"
uom = "%"
valueobserved = 99.3

[[record]]
smilesrepresentation = "CC(C)(C)n1ncc(-c2nc(CC(=O)NCC3CCOCC3)cs2)c1-c1ccc(C#N)cc1"
valuetype = "inhibition at 1 µM"
uom = "%"
valueobserved = 101

